These entries and their values trace back to PubChem BioAssay AID504374.

- subject_of_test: Runt-related transcription factor 1 (Homo sapiens) + Core-binding factor subunit beta (Homo sapiens) (UniProt Q01196+Q13951)
- Sequence (Q01196 whole entry, looked up): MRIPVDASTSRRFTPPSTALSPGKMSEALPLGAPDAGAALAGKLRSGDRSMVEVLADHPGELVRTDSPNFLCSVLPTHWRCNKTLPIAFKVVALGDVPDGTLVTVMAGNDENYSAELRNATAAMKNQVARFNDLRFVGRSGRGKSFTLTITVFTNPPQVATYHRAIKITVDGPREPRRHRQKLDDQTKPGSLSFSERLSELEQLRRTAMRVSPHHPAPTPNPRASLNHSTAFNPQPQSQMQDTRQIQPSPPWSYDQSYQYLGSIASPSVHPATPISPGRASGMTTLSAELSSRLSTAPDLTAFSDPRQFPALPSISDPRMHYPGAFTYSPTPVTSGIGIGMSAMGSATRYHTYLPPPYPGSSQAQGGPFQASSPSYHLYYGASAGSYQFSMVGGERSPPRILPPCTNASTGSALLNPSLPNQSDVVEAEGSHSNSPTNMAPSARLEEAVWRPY
- Sequence (Q13951 whole entry, looked up): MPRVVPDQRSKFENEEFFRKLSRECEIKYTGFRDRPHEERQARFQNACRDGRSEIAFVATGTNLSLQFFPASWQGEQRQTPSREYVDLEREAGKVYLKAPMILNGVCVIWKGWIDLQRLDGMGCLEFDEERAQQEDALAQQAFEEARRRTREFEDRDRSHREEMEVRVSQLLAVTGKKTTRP
- assay_info: qHTS Assay for Compounds Blocking the Interaction Between CBF-beta and RUNX1 for the Treatment of Acute Myeloid Leukemia: Hit Validation; also: nearly all actives have a fitted effect of over 60% in size
- run_parameters: AlphaScreen CBFb-His/RUNX1-biotin binding; series mostly up to 59.8 µM
About 100 (6.7%) of roughly 1,500 compounds were called active. Not shown: some 7% with an inconclusive outcome. Calls follow the shape of the dose curve; as a rule, active = well fitted inhibition curve with a large enough effect; inconclusive = small, poorly fitted or top-dose-only effect, or effect the other way; inactive = flat fitted curve, though single readings scatter. Many of the other results were omitted from the sample, so actives are more common in it than they were.
Reply using exactly one outcome from active, inactive

Use the examples below as a reference point.
Qu. Write down the call the test reported for this molecule. Item: COc1ccc(-c2nnsc2N2C(=O)c3ccccc3C2=O)cc1
Ans. inactive

Qu. In this assay, the call recorded for Cc1oc(S(=O)(=O)N(C)C)cc1C(=O)Nc1ccc(Cl)cc1 was what?
Ans. inactive

Qu. Please state the recorded outcome for this molecule: CC1=NN(c2ccccc2)C(=O)/C1=C/C=C/c1ccc(N(C)C)cc1
Ans. active

Qu. Write down the call the test reported for this molecule. Item: CN(C)c1ccc(N2C(=O)CC(c3ccccc3)CC2=O)cc1
Ans. inactive

Qu. Each molecule tested received a call. Report the one for Cc1cc(C)nc(N2N=C(C(F)(F)F)CC2=O)n1 .
Ans. inactive

Further cases:
Qu. How did this test come out for CCOC(=O)N1CCC(NS(=O)(=O)c2ccccc2)CC1 ?
Ans. inactive
